All values here come from patent US20100119506A1.

# tgt: T1, Human PAR-2 on cells (human, UniProt P55085 26-397)
# T1 sequence: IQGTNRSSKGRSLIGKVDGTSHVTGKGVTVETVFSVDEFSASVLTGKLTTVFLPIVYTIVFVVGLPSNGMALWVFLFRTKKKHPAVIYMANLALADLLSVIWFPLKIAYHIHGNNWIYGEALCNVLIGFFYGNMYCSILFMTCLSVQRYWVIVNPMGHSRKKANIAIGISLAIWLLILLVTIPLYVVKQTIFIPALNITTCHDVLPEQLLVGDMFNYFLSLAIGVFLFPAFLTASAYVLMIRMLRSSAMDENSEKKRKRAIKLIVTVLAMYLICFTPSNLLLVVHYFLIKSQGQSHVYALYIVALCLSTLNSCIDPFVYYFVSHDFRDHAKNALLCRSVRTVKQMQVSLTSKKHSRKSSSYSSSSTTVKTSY
# assay text: cell-based or functional assay
Measured FLIPR A549 cells IC50 by item
Hi! Could you send only the number? It should be in nM, unit omitted.

>>> reported_measurement("Ab4999 IgG4_Pro (antibody, V domains shown, IgG4_Pro (human IgG4 constant regions, Ser241Pro hinge), lambda; also called IgG4p Ab4999) VH: QVQLVESGGGLVQPGGSLRLSCAASGFTFSSYAMNWVRQAPGKGLEWVSTISYSSSATSYADSVKGRFTISRDNSKNTLYLQMNSLRAEDTAVYYCARIQNDPMDVWGQGTLVTVSS VL: DIELTQPPSVSVAPGQTARISCSGDNLGKKYVQWYQQKPGQAPVLVIYDDSNRPSGIPERFSGSNSGNTATLTISGTQAEDEADYYCQTWDYSSIRDETNVFGGGTKLTVLG")
3.1

[Q] Dear colleague, please send me the reported FLIPR A549 cells IC50 for Ab4994 IgG4_Pro (antibody, V domains shown, IgG4_Pro: variable regions fused to human IgG4 constant regions with Ser241Pro in the hinge, lambda light chain; also called IgG4p Ab4994) VH: QVQLVESGGGLVQPGGSLRLSCAASGFTFSSYAMNWVRQAPGKGLEWVSAISYSGHLTGYADSVKGRFTISRDNSKNTLYLQMNSLRAEDTAVYYCARIQNDPMDVWGQGTLVTVSS VL: DIELTQPPSVSVAPGQTARISCSGDNLGKKYVQWYQQKPGQAPVLVIYDDSNRPSGIPERFSGSNSGNTATLTISGTQAEDEADYYCSSWDVGSDGWVFGGGTKLTVLG when you can.
[A] 2.2

[Q] Quote FLIPR A549 cells IC50 reported for Ab5003 IgG4_Pro (antibody, V domains shown, IgG4_Pro (human IgG4 constant regions, Ser241Pro hinge), lambda; also called IgG4p Ab5003) VH: QVQLVESGGGLVQPGGSLRLSCAASGFTFSSYAMNWVRQAPGKGLEWVSAISYKGHLTGYADSVKGRFTISRDNSKNTLYLQMNSLRAEDTAVYYCARIQNDPMDVWGQGTLVTVSS VL: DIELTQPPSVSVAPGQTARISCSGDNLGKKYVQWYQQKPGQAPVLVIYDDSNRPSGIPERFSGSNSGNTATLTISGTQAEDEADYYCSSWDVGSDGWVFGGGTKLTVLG please.
[A] 2.3
